Data credit: ChEMBL document CHEMBL1201862

Test system: MDA-MB-435
Experiment: NCI tumour cell line growth inhibition, 48 h
The source made the active and inactive calls. Cut-off read from the data, not from the text of the source: active = GI50 up to about 1.1 µM and inactive = higher.
For each of the molecules below, state its GI50.

Go through the list and state GI50 for each entry.
1. [O-][Cl+3]([O-])([O-])O.c1ccc(C2=NN2c2ccccc2)cc1
2. COC(=O)C1(C)CC2C(C)(CCC3(C)C4=CC=C5C(=CC(=O)C(O)=C5C)C4(C)CCC23C)CC1O (stereo unspecified)
3. Cc1ccc(/C=C2/N/C(=N\N=C/C(O)C(O)C(O)C(O)CO)NC2=O)cc1 (stereo unspecified)
4. CCN(CC)CCN1C(=O)c2c(c3c4cccc(Cl)c4n(C4OC(CO)C(OC)C(O)C4O)c3c3[nH]c4c(Cl)cccc4c23)C1=O (stereo unspecified)
5. COc1cc(OC)c(CSCC(NC(=O)OCC2c3ccccc3-c3ccccc32)C(=O)O)c(OC)c1 (stereo unspecified)

stdout:
1. 2.83 µM (inactive)
2. 0.942 µM (active)
3. > 100 µM (inactive)
4. 0.0147 µM (active)
5. > 10 µM (inactive)
